- Test system: penicillin-susceptible S. pneumoniae (PSSP)
- Type: cell-based, Streptococcus pneumoniae
- test.conditions: MIC range over 20 PSSP isolates; CLSI broth microdilution, CAMHB with 5% laked horse blood, 18–24 hrs 37°C 5% CO2, peptides 1.96–250 μg/ml, three independent experiments
Where no end group is shown, it is not given here.
assay.readout: MIC, PSSP

Problem: // MIC, PSSP lookup, key: GLFDKWAWWRWRR-NH2 [DM1]
Result: 62.5 to 250 µg/mL

Problem: Also check GLFDIWKKWRWRR-NH2 [DM4]
Result: 15.63 to 125 µg/mL

Problem: Also check GLFDIWKKLRWRR-NH2 [DM5]
Result: 15.63 to 125 µg/mL

Problem: Also check GLFDIWKWWRWRR-NH2 [DM3]
Result: 7.81 to 62.5 µg/mL

Problem: Also check GLFDIWAWWRWRR-NH2 [DM2]
Result: 15.63 to 250 µg/mL
